# tested target: Glucose transporter (Leishmania mexicana) (UniProt O61059)
# run description: ST_JUDE_LEISH: Cytotoxicity at 2uM final concentration against transgenic Leishmania Mexicana promastigotes LmGT2 that are glucose transport deficient and complemented with the L. Mexicana glucose transporter 2. Activity is measured by DNA content using SYBR green in vitro
# Format: functional
Measured inhibition of individual entries
quantity kind: inhibition (%)

compound=Cc1ccnc(Nc2nc(-c3ccccn3)cs2)c1 observed_measurement=-2.74
compound=Oc1ccc2nc(N3CCNCC3)nc(NCCCc3ccccc3)c2c1 observed_measurement=0.5
compound=CCc1nnc2sc(-c3cccc(NC(=O)c4ccc(C)c([N+](=O)[O-])c4)c3)nn12 observed_measurement=2.48
compound=O=C(Nc1cccc(CN2CCCN(Cc3ncc[nH]3)CC2)c1)c1ccc(Cl)c(Cl)c1 observed_measurement=5.79
compound=Cc1c(CNCCCNc2cc(=O)c3ccccc3[nH]2)sc(-c2ccco2)c1Br observed_measurement=13.9
compound=N=C(N)NC(=O)Nc1cc(F)c(Cl)c(Cl)c1 observed_measurement=6.35
compound="COc1cc(C(=O)N2C(c3nccs3)C(C(=O)N(OC)C(C)c3ccccc3)CC2(CC(C)C)C(=O)OC(C)(C)C)ccc1C(C)(C)C (stereo not drawn)" observed_measurement=1.29
compound=COc1cc(CNc2ncc(-c3ccsc3)c(-c3nccs3)n2)cc(OC)c1 observed_measurement=-0.78
compound="NCC(NC(=O)c1ccc(-c2c[nH]c3ncccc23)s1)c1ccccc1 (stereo not drawn)" observed_measurement=25.9
compound=CCCNCc1ccc(-c2ccc(CN(CCOC)C(=O)[C@H]3CCCO3)cc2)nc1 observed_measurement=4.1
compound=COc1ccc(NC(=O)c2ccc(OCCCCCCCOc3ccc(C(=O)Nc4ccc(OC)c(N5CCN(C)CC5)c4)cc3)cc2)cc1N1CCN(C)CC1 observed_measurement=1.11
compound="CS(=O)(=O)N1CC2(CCN(CCC(NC(=O)Nc3ccccc3)c3ccc(Cl)c(Cl)c3)CC2)c2ccccc21 (stereo not drawn)" observed_measurement=3.05
compound=CNCCNCc1ccc(-c2ccc(-c3nc4cccc(C)c4[nH]3)cc2)cc1 observed_measurement=4.77
compound=N#Cc1ccc(N(CCNS(=O)(=O)c2cc(Br)c(Cl)s2)Cc2ccccc2C(F)(F)F)cc1C(F)(F)F observed_measurement=1.55
compound=Cc1nc(C)c(-c2ccc(Oc3cccc(OC(F)(F)F)c3)cc2)c(O)c1Cl observed_measurement=2.84
compound=CCN1CCN(c2cc(C)c3cc(NC(=O)c4cncc(Br)c4)ccc3n2)CC1 observed_measurement=-2.43
compound="O=C(Nc1ccc(OC2CCN(Cc3ccccc3)C2)c(Cl)c1)c1ccc(F)cc1 (stereo not drawn)" observed_measurement=4.21
compound=O=C(NCc1cccc(F)c1)Nc1cccc(-c2ccc(-c3nc4cc(C(F)(F)F)ccc4[nH]3)cc2)c1 observed_measurement=0.07
compound="CC(C)(C)OC(=O)n1cc(C2CCN(CCCC34CCCc5cccc(c53)NC4=O)CC2)c2ccncc21 (stereo not drawn)" observed_measurement=9.45
compound="COc1ccc(C(C(=O)NC2CCN(C[C@H](O)c3ccnc4ccc(OC)cc34)CC2)N2CCN(c3ccc(F)cc3)CC2)cc1 (stereo partly drawn)" observed_measurement=1.93
compound=O=C(NC1CCCCC1)N(Cc1ccccc1-c1ccc(CNCCc2ccccc2)cc1)C1CCN(Cc2ccccc2)CC1 observed_measurement=-0.58
compound="CCN1C(=O)C(CC(=O)Nc2cccc(Cl)c2)N(Cc2ccc(OC)c(OC)c2)C1=S (stereo not drawn)" observed_measurement=0.57
compound=CN1CCC(C(=O)Nc2ccc(-c3ccc(-c4nc5cc(C(F)(F)F)ccc5[nH]4)s3)cc2)CC1 observed_measurement=-0.16
